Hello, the source for this data is PubChem BioAssay (NCATS), in case you need it.

assay: Cell Viability - LYMP2-022 (AID 987); conditions: LYMP2-022 lymphoblastoid cell viability; series mostly up to 92.2 µM;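 also: cells exposed to compound for 24 hr; nearly all actives have a fitted effect of over 55% in size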
Records with an inconclusive call do not appear. Active and inactive are the calls of the source. Calls follow the shape of the dose curve; as a rule, active = well fitted cell-killing curve with a large enough effect; inconclusive = small, poorly fitted or top-dose-only effect; inactive = flat fitted curve, though single readings scatter.
In this exercise, the only acceptable responses are active, inactive

Reference set (3 entries):
{"compound": "Brc1cccc(-c2ccccc2)c1", "assignedCategory": "inactive"}
{"compound": "CCOC(=O)C1OC1(C)c1ccccc1 (stereo not drawn)", "assignedCategory": "inactive"}
{"compound": "Nc1ccc(-c2ccccc2)cc1", "assignedCategory": "inactive"}

// return assay outcome for `CN(C)C(=O)Nc1cccc(C(F)(F)F)c1`
inactive

Fill in: this test's call for `CCC[N+](=O)[O-]` is ___
inactive

Would you mind telling me which call this test gave `COc1ccc(C=O)cc1` ?
inactive

Called result for `Cl/C=C/CCl`
inactive

Per the assay record, what outcome was assigned to `Nc1c(Br)cc([N+](=O)[O-])cc1[N+](=O)[O-]` ?
inactive

Could you kindly confirm the outcome this assay logged for `Cc1cc(N=Nc2ccccc2C)ccc1N` ?
inactive

Identify the outcome logged in this assay for the compound shown: `O=c1ccc(=O)[nH][nH]1`
inactive

Just curious, what result did `C=CCBr` get here?
inactive

GET /call?item= `Cc1ccc(N)c(N)c1` returns the recorded outcome of this test.
active

Hey, what did the test say about CC(C)CC(C)N (stereo not drawn) ?
inactive

State the result this test recorded for `ClCCOCOCCCl` .
inactive
